Please go through the items and note down their pIC50.
- experimentalSystem: human TREK-1 (Homo sapiens)
- Construct: expressed in transfected cells
- Sequence (O95069 whole entry): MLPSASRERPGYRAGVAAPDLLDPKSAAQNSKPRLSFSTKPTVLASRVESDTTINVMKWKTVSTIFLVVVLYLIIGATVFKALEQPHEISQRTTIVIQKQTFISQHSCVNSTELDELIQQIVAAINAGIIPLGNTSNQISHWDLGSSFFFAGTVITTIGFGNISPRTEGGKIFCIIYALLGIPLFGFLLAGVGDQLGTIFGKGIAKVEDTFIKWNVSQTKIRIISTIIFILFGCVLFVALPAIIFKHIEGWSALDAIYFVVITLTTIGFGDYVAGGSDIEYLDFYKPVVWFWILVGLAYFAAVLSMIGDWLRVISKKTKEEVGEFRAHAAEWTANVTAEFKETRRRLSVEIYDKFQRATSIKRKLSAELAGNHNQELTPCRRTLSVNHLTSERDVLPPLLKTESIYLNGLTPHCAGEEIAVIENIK
- assayNotes: TREK-1 Thallium (Tl+) flux assay, Method 1
- Format: cell-based
- statedConditions: TREK-1 Thallium (Tl+) flux assay; values without footnote *12 are Method 1
- Experimental: The term “thallium flux assay” herein refers to a fluorescence-based assay used to monitor the activity of TREK channels. Thallium is a congener of potassium that readily fluxes through the pore of TREK channels. Thallium flux is measured using a commercially available, thallium-sensitive fluorescent dye called Thallos. The detail method is described below. […] ΔRatio=(fluorescence intensity at 25 seconds after thallium addition)/(average of fluorescent intensity before thallium addition)
One number for each entry, as −log10 of the molar value.

{"compound": "CC(=O)N1CCC(n2ncc(Cl)c2C(=O)Nc2c(C)cc(C#Cc3ccccc3)cc2F)CC1", "measuredResult": 6.92}

Required: pIC50, one value per compound below.
1. CC(=O)N1CCC(C#N)(Cn2ncc(Cl)c2C(=O)Nc2ncc(C#Cc3ccc(F)cc3)cc2C)CC1
2. Cc1cc(C#Cc2ccc(F)cc2)cnc1NC(=O)c1c(Cl)cnn1CCN1CCN(C(=O)C2CC2)CC1
3. Cc1cc(C#Cc2cccs2)cnc1NC(=O)c1c(Cl)cnn1C1CC2(C1)CN(C(=O)C(C)C)C2
4. CC(=O)N[C@H]1CC[C@@H](n2ncc(Cl)c2C(=O)Nc2ncc(C#Cc3ccccc3)cc2F)CC1
5. Cc1cc(C#Cc2ccccc2)cnc1NC(=O)c1c(Cl)cnn1C1CN(C(=O)C2COCCO2)C1 (centres unmarked)
6. Cc1cc(C#Cc2ccc(F)cc2)cnc1NC(=O)c1c(Cl)cnn1C1CC2(C1)CN(C(=O)C1CC1)C2

[6.57, 6.74, 6.89, 6.92, 6.80, 6.70]

Give recorded pIC50. CC(=O)N1CCC(n2ncc(Cl)c2C(=O)Nc2c(F)cc(C#Cc3ccccc3)cc2F)CC1
6.96

###

Please go through the items and note down their IC50.
- experimentalSystem: human TREK-1 (Homo sapiens)
- Construct: expressed in transfected cells
- assayNotes: TREK-1 Thallium (Tl+) flux assay, Method 1
- Type: cell-based
- statedConditions: TREK-1 Thallium (Tl+) flux assay; no *^12 (Method 2) mark on these rows
Numbers only, in nM.

Here is how some molecules turned out for IC50.
{"smi": "Cc1cc(C#Cc2ccccc2)cnc1NC(=O)c1c(Cl)cnn1C[C@@H]1COCCO1", "unitInfo": "nM", "IC50": 730}
{"smi": "Cc1cc(C#Cc2ccccc2)cnc1NC(=O)c1c(Cl)cnn1-c1ccc2c(c1)OCO2", "unitInfo": "nM", "IC50": 490}

Okay, next one:
Give recorded IC50. Cc1cc(C#Cc2ccccc2)cnc1NC(=O)c1c(Cl)cnn1[C@H]1C[C@@H]2CN(C(=O)C(C)C)C[C@@H]2C1
610
